The measured values listed here are drawn from patent US6716833B2.

molecular target: MMP-13 (Homo sapiens); test: MMP-13 inhibition (thiopeptide or fluorescent peptide substrate); format: biochemical; settings: Table 9; read-out: MMP-13 IC50
assay_metric: IC50 (nM)

Sample answers from the record:
>  <compound>
CC#CCOc1ccc(S(=O)(=O)N2CCS(=O)(=O)C(C)(C)[C@@H]2C(=O)NO)cc1

>  <IC50 / nM>
23

$$$$
>  <compound>
CCC#CCOc1ccc(S(=O)(=O)N2CCSC(C)(C)[C@@H]2C(=O)NO)cc1

>  <IC50 / nM>
5

$$$$
>  <compound>
CCCCC#CCOc1ccc(S(=O)(=O)N2CCSC(C)(C)C2C(=O)NO)cc1 (stereo not drawn)

>  <IC50 / nM>
6.6

$$$$
>  <compound>
CC#CCOc1ccc(S(=O)(=O)N2CCSC3(CCCCC3)C2C(=O)NO)cc1 (stereo not drawn)

>  <IC50 / nM>
12

$$$$
>  <compound>
CC#CCOc1ccc(S(=O)(=O)N2CCOCC2C(=O)NO)cc1 (stereo not drawn)

>  <IC50 / nM>
26

$$$$

A = CC#CCOc1ccc(S(=O)(=O)N2CCSC3(CCN(Cc4ccccc4)CC3)C2C(=O)NO)cc1 (stereo not drawn)
B = CC#CCOc1ccc(S(=O)(=O)N2CC[S+]([O-])C(C)(C)C2C(=O)NO)cc1 (single isomer, unassigned) [Example 256]
Request: Sort A and B by IC50 descending and give the first. Record your answer as the label of the chosen record.
Result: B
(B: 48 nM, A: 0.5 nM)

* * *

target: TNF-α converting enzyme (TACE) (Homo sapiens, UniProt P78536); assay: TACE inhibition (fluorescent peptidyl substrate); format: biochemical; settings: IC 50 nM (In Vitro Inhibition of TACE), Table 15
Sequence (P78536 215-824, species assumed): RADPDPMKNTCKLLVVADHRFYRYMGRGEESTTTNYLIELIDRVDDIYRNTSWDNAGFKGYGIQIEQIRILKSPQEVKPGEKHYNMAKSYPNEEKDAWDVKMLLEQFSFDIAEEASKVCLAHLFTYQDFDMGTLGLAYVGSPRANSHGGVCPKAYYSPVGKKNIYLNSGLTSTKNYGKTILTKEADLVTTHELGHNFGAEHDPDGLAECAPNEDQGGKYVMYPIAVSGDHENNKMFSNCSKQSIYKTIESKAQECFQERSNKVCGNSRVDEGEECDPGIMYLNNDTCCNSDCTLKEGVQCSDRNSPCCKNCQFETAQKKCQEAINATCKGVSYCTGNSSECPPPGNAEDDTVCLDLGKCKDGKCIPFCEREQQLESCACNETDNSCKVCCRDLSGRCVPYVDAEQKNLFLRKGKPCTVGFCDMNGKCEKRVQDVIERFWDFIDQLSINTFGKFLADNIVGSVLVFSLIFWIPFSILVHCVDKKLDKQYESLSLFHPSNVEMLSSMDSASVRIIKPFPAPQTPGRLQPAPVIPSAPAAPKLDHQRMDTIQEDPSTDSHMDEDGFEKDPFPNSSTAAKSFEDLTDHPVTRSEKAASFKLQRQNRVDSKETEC
assay_metric: IC50 (nM)

// worked examples, IC50 included
>  <line_notation>
CC#CCOc1ccc(S(=O)(=O)N[C@H](CCCNC(=O)Nc2ccccc2)C(=O)NO)cc1

>  <unit_descriptor>
nM

>  <IC50>
2.4

$$$$
>  <line_notation>
CC#CCOc1ccc(S(=O)(=O)N[C@H](Cc2ccc(OCc3ccccc3)cc2)C(=O)NO)cc1

>  <unit_descriptor>
nM

>  <IC50>
58.6

$$$$
>  <line_notation>
CC#CCOc1ccc(S(=O)(=O)N[C@H](CCC(=O)O)C(=O)NO)cc1

>  <unit_descriptor>
nM

>  <IC50>
28.9

$$$$

P = CC#CCOc1ccc(S(=O)(=O)N[C@H](CCCCNC(=O)c2ccc(OC)cc2)C(=O)NO)cc1
Q = CC#CCOc1ccc(S(=O)(=O)N[C@H](CCCNC(=O)CN2CCN(C)CC2)C(=O)NO)cc1
R = CC#CCOc1ccc(S(=O)(=O)N[C@@H](CCCCN)C(=O)NO)cc1
Request: I would appreciate it if you could sort these 3 compounds by IC50, starting from the smallest number. Reply with the labels, ordered as the question asks.
Result: P, Q, R
(P: 6.32 nM, Q: 26.5 nM, R: 490 nM)

I = CC#CCOc1ccc(S(=O)(=O)N[C@H](CCCC)C(=O)NO)cc1
II = CC#CCOc1ccc(S(=O)(=O)N[C@H](CCCCNC(=O)OCc2ccccc2)C(=O)NO)cc1
Request: Would you mind telling me which has the lower recorded IC50 between I and II ? Reply briefly: the label of your chosen item.
Result: I
